- Tgt: T1, Recombinant Human PD-L1-TVMV-His (human, UniProt Q9NZQ7 19-239)
- T1 construct: expressed in HEK293T cells; also called PD-L1-His; hPD-L1(19-239)-TVMV-His
- Assay explanation: HTRF vs PD-1-Ig; B = IC50 0.01-0.099 µM
Starred links: 1 amine or outer side, 2 acyl side, 3 side chain; linkers in the order of their positions; H or OH if unused. Positions of bridges follow the written chain, without caps; N, C: chain ends. Non-standard residues stand in square brackets, D forms with d. Groups on a side chain read outwards from the residue. Primed or numbered codes have the meaning given here. No end group written: not given here. *: point of attachment. Pra′ = propargylglycine (built in as LPH), clicked to a 1-substituted triazol-4-yl-alanine, O=C([C@H](Cc1cn([*:3])nn1)N[*:1])[*:2]; X1 = (S)‑3‑carboxy‑3‑(15-carboxypentadecanoylamino)propyl, O=C(O)CCCCCCCCCCCCCCC(=O)N[C@@H](CC*)C(=O)O; X2 = (S)‑3‑carboxy‑3‑palmitamidopropyl, CCCCCCCCCCCCCCCC(=O)N[C@@H](CC*)C(=O)O; Pra(3) = propargylglycine, clicked to an azide to give a triazolyl-alanine; triazole = 1,2,3-triazole formed by click of the Pra alkyne with the azide; Trp(1-CH2CO) = O=C([C@H](Cc1cn(CC(=O)[*:3])c2ccccc12)N[*:1])[*:2]; Phe(3,4,5-F3) = N[C@@H](Cc1cc(F)c(F)c(F)c1)C(=O)O; Hyp = O=C(O)[C@@H]1C[C@@H](O)CN1; NMeF = CN[C@@H](Cc1ccccc1)C(=O)O; NMeNle = CCCC[C@H](NC)C(=O)O; triazole″ = not defined here; NMeA = CN[C@@H](C)C(=O)O; Orn = NCCC[C@H](N)C(=O)O
A collection of binders and their measured IC50

[
  {
    "Binder": "YADPHKPWKWXXECGXD (as m110 (INT 1400E); Pra triazole-linked to vitamin E succinate 5-azidopentylamide) [Example 14086]",
    "IC50": "10 to 99 nM"
  },
  {
    "Binder": "{CH2CO}-Y[NMeA]DPHK[Hyp]WKW[NMeNle][NMeNle]ECG[Pra(3)]([triazole″-2,5,8,11‑tetraoxatridecyl])G (thioether N-14; reading uncertain) [Example 14063]",
    "IC50": "10 to 99 nM"
  },
  {
    "Binder": "{CH2CO}-[Phe(3,4,5-F3)][NMeF][NMeNle][dP]DV[NMeF][Orn][dP]WYLCG[Pra′]([triazole-X1]) (thioether N-13) [Example 14073]",
    "IC50": "10 to 99 nM"
  },
  {
    "Binder": "YADPHKPWKWXXECGX (as m102 (INT 1300Y); Pra triazole-linked to vitamin E succinate 5-azidopentylamide) [Example 14085]",
    "IC50": "10 to 99 nM"
  },
  {
    "Binder": "{CH2CO}-Y[NMeA]DPHK[Hyp]WK[Trp(1-CH2CO)][NMeNle][NMeNle]ECG[Pra′]([triazole-X2]) (thioether N-14) [Example 14079]",
    "IC50": "10 to 99 nM"
  }
]
